Tested on: Dd2
Assay notes: qHTS profiling for inhibitors of Plasmodium falciparum proliferation (AID 504749); also: nearly all actives have a fitted effect of over 60% in size; also: potency is read from the fitted curve at half-maximal effect
Particulars: P. falciparum in erythrocytes, SYBR Green DNA, 72 h; series mostly up to 28.7 µM
Results filed as inconclusive are left out. The source made the active and inactive calls. Calls follow the shape of the dose curve; as a rule, active = well fitted inhibition curve with a large enough effect; inconclusive = small, poorly fitted or top-dose-only effect; inactive = flat fitted curve, though single readings scatter.
Reported metric: Potency

compound=C[C@@H](O)[C@@H]1C(=O)N2C(C(=O)O)=C([C@H]3CCCO3)S[C@H]12 obs_value=inactive
compound=CN[C@H](C)CCC=C(C)C obs_value="79.4 nM (active)"
compound="C[C@@H]1CC2[C@@H]3C[C@H](F)C4=CC(=O)C(Cl)=C[C@]4(C)[C@@]3(F)[C@H](O)C[C@]2(C)[C@@]1(O)C(=O)CO (stereo not given in full)" obs_value=inactive
compound="CC1(C(=O)O)CCC2(C)CCC3(C)C(=CC(=O)C4C5(C)CCC(O)C(C)(C)C5CCC43C)C2C1 (stereo not given)" obs_value=inactive
compound="CN1[C@H]2CC(OC(=O)[C@H](CO)c3ccccc3)C[C@H]1[C@H]1O[C@H]12 (stereo not given in full)" obs_value=inactive
